# System: A498 renal
# assay_name: NCI tumour cell line growth inhibition, 48 h
measured_quantity: TGI (µM)
Hi! Could you send only the number? It should be in µM, unit omitted.

compound: CCN(CC)CCC(CNc1ccnc2cc(Cl)ccc12)c1ccc(Cl)cc1 (centres undefined)
units_symbol: µM
TGI: 2.76

compound: CC1=NN(c2nc(N)nc(/C(C#N)=C\c3ccc([N+](=O)[O-])s3)n2)C(C)(C)C1
units_symbol: µM
TGI: 26.8

compound: C=C1C(=O)OC2CC(C)C(C(CC(C)=O)OC(C)=O)=CCC12 (centres undefined)
units_symbol: µM
TGI: 39.4

Reported TGI for "C#CCOc1cccc(-c2ncc3cc(NC(=O)CCl)ccc3n2)c1" was 31

Reported TGI for N#CC1C(=S)NC(c2ccccc2)=CC12CCCCC2 (centres undefined) was 50.3

Reported TGI for "Cc1n(Cc2ccccc2)c2c([n+]1C)C(=O)c1ccccc1C2=O" was 0.653

Reported TGI for "Cc1ccc(S(=O)(=O)Nc2ccccc2C=O)cc1" was 92.2

Reported TGI for "O=C1Sc2cc3ccccc3cc2C(=O)Sc2ccc(Br)cc21" was 33.4

====

# Test system: MDA-MB-231 breast
# assay_name: NCI tumour cell line growth inhibition, 48 h; in the data active = GI50 below about 0.43 µM; inactive = the rest
Response enum: active, inactive

Consider the worked cases shown below.
molecule: NC(=S)N/N=C/C(=O)O
assigned_category: inactive
//
molecule: COc1cccc(F)c1C(=O)c1cnc(NC2CCN(S(C)(=O)=O)CC2)nc1N
assigned_category: inactive
//
molecule: COc1ccccc1/C=N\N/C(N)=N\N=C\c1ccccc1OC
assigned_category: inactive
//
molecule: O=C(Nc1ccc(Br)cc1F)c1cc(F)ccc1O
assigned_category: active
//
molecule: CC1=C(C(=O)Nc2ccc(F)c(Cl)c2)C(c2ccccc2O)NC(=S)N1 (stereo unspecified)
assigned_category: inactive

Then there is this molecule:
*Q* Given "Nc1nn2cc(F)cnc2c1C(=O)Nc1cncc(F)c1N1CCC(C(=O)N2CCN(C3COC3)CC2)CC1" , state the outcome it received in this test.
*A* inactive

====

# Test system: MCF7 breast
# assay_name: NCI tumour cell line growth inhibition, 48 h; in the data active = GI50 below about 0.43 µM; inactive = the rest
Response enum: active, inactive

molecule: N#Cc1c(NC(=O)NCc2ccccc2)sc2c1CCCCC2
system_under_test: MCF7 breast
assigned_category: active
//
molecule: CCN1CCN(C(=O)[C@@]2(C)CC[C@]3(C)CC[C@]4(C)C(=CC(=O)[C@@H]5[C@@]6(C)CC[C@H](OC7C[C@@H](O)[C@@H](O)C(C)O7)C(C)(C)[C@@H]6CC[C@]54C)[C@@H]3C2)CC1 (some centres undefined)
system_under_test: MCF7 breast
assigned_category: inactive
//
molecule: Cc1ccc(SC2c3ccc(C)cc3Oc3nc(N)c(C#N)c(N)c32)cc1 (centres undefined)
system_under_test: MCF7 breast
assigned_category: inactive

Then there is this molecule:
*Q* Given "CO/N=C(/C)c1cccc(Nc2cc(-n3nnc4ccccc43)nc3ccccc23)c1" , state the outcome it received in this test.
*A* inactive

====

# Test system: NCI-H460 lung
# assay_name: NCI tumour cell line growth inhibition, 48 h
Listed below: TGI values for each entry.

Known TGI results, listed for orientation:
compound: COc1ccc(/C=C\[N+](=O)[O-])cc1OC
TGI: 21.2 µM
--
compound: CC[As](CC)SC[C@H](C)C(=O)N1CCC[C@H]1C(=O)O
TGI: 2.17 µM
--
compound: CC1(C)C(C#N)C1C1=C(N2CCOCC2)[C@]2(C)C(OC(=O)c3ccccc3)CC[C@@H]2C1 (stereo partly drawn)
TGI: > 100 µM
--
compound: NC(N)=NS(=O)(=O)c1ccc(NNc2c3ccccc3nc3c(C(=O)Nc4ccc(S(=O)(=O)Nc5ncccn5)cc4)cccc23)cc1
TGI: > 100 µM
--
compound: CCN(CC)CCC(CNc1ccnc2cc(Cl)ccc12)c1ccc(Cl)cc1 (stereo not drawn)
TGI: 11.1 µM
--
compound: CC/C=C\C[C@H](O)C/C=C1/C(=O)C(Cl)=C[C@@H]1C/C=C\CCCC(=O)OC
TGI: 2.22 µM
--
compound: COc1cccc(C2c3cc4c(cc3OC(N3CCCCC3)C2C)OCO4)c1O (stereo not drawn)
TGI: 24.4 µM
--
compound: COC(=O)COc1ccccc1/C=C1\N=C(c2ccccc2)N(c2cc(C(F)(F)F)ccc2Cl)C1=O
TGI: > 100 µM
--
compound: COc1cccc(F)c1C(=O)c1cnc(NC2CCN(S(C)(=O)=O)CC2)nc1N
TGI: > 25 µM
--
compound: CCC(=O)CC(=O)CCC(=O)Nc1cc(C)ccc1C
TGI: > 100 µM

Reported TGI for "c1ccc2cc(-c3cc4ccccc4s3)ccc2c1" was > 100 µM

Reported TGI for "O=C(Nc1ccc(Br)cc1F)c1cc(F)ccc1O" was 9.75 µM

Reported TGI for "O=C(/C=C/c1ccccc1)CCC1C(=O)c2ccccc2C1=O" was > 100 µM

Reported TGI for "O=C(O)COc1ccc2c(=O)c3sc4c(=O)c5ccccc5c(=O)c4c3c(=O)c2c1" was 10.4 µM

Reported TGI for "COc1cc(C(=O)N2CCN(C=O)C2=S)cc(OC)c1OC" was > 100 µM
